- assay_overview: In vivo LD50, ED50 and toxic dose in mice models
- condition_set: mouse, dose that killed 50% of the mice population within the group
Provide the recorded LD50 for the entries that follow.
All answers are understood in mg/kg, so give the number only.

LD50 recorded for this compound, O=C(CSc1nc2ccccc2n1C(=O)c1ccccc1)Nc1ccc(Cl)cc1 [Compound 15] , is 2.67

Quick note, LD50 for O=C(CSc1nc2ccccc2n1C(=O)c1ccccc1)Nc1ccccc1F [Compound 2] landed at 1.81

In plain terms, O=C(CSc1nc2ccccc2n1C(=O)c1ccccc1)Nc1ccccc1Cl [Compound 4] has a documented LD50 of 1.96

The compound identified as Cc1cccc(C)c1NC(=O)CSc1nc2ccccc2n1C(=O)c1ccccc1 [Compound 13] registered its LD50 at 2.14

# LD50 (compound: COc1ccc(NC(=O)CSc2nc3ccccc3n2C(=O)c2ccccc2)cc1 [Compound 18] ) is 3.15

GET /value?item= O=C(CSc1nc2ccccc2n1C(=O)c1ccccc1)Nc1cccc([N+](=O)[O-])c1 [Compound 10] &field=LD50 returns 1.83

Please fill in: LD50 reported for O=C(CSc1nc2ccccc2n1C(=O)c1ccccc1)Nc1cc(Cl)ccc1Cl [Compound 6] = 1.86

The compound identified as O=C(CSc1nc2ccccc2n1C(=O)c1ccccc1)Nc1cccc(Br)c1 [Compound 8] registered its LD50 at 1.88

Record summary for O=C(CSc1nc2ccccc2n1C(=O)c1ccccc1)Nc1ccccc1 [Compound 1] : reported LD50 = 1.83

Just so you know, measured LD50 for Cc1ccc(NC(=O)CSc2nc3ccccc3n2C(=O)c2ccccc2)cc1 [Compound 12] came out at 1.85

The value of LD50 measured for the compound COc1ccccc1NC(=O)CSc1nc2ccccc2n1C(=O)c1ccccc1 [Compound 17] turned out to be 3.17

The recorded LD50 for entry O=C(CSc1nc2ccccc2n1C(=O)c1ccccc1)Nc1ccc(F)cc1 [Compound 3] equals 1.87
